# systemUnderTest: HiBit-BRM fusion protein (Homo sapiens)
# Construct: expressed in transfected cells
# Sequence (P51531 whole entry, the tested form may be a part): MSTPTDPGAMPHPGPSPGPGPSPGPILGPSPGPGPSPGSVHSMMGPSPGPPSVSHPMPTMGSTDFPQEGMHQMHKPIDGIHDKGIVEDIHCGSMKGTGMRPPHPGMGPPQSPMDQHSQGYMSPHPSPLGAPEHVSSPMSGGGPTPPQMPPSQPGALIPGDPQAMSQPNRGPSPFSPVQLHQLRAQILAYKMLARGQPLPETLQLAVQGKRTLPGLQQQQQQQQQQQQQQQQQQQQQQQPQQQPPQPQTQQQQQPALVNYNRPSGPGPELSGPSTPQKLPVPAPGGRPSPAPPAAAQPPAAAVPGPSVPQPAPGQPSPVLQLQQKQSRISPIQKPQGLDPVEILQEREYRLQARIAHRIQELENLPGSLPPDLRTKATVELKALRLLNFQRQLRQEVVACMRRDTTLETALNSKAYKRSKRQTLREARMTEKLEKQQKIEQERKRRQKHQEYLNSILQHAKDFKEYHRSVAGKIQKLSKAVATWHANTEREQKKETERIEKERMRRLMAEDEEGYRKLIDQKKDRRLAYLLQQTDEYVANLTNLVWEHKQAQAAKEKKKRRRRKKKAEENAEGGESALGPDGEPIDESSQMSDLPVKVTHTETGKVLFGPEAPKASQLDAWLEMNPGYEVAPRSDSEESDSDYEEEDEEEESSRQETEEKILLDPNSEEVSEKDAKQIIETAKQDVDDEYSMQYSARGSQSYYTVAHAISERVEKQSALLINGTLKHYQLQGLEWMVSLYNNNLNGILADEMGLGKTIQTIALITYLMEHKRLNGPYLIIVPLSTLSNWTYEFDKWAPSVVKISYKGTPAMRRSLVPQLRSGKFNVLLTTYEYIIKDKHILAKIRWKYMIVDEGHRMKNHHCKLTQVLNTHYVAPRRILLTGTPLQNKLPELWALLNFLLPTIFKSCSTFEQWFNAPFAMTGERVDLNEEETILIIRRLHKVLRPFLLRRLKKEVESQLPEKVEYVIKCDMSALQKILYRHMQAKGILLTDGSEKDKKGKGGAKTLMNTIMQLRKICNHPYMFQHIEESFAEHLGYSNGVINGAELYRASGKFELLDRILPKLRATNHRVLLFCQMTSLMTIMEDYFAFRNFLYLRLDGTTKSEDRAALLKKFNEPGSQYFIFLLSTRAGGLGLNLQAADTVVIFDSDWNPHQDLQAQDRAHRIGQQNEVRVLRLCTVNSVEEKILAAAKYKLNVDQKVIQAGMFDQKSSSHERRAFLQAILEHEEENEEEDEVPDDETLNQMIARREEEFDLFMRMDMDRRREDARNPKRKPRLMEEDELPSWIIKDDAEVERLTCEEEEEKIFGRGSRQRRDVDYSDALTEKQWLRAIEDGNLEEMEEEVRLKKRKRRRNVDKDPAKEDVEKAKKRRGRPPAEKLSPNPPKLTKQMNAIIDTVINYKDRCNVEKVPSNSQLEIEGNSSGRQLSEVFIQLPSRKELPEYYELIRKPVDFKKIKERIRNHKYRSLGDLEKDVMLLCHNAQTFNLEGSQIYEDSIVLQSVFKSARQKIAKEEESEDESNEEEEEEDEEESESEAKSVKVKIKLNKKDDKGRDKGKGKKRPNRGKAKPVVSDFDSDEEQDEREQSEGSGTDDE
# procedureSummary: HiBiT-BRM cell-based degradation assay (Nano-Glo HiBiT Lytic Detection, 24 h)
# studyConditions: HeLa cells expressing HiBiT-BRM, read-out: BRM HiBit Degradation IC50
readoutLabel: DC50

Below: 5 molecules and their reported DC50.
# molecule, DC50
records = [
    ("CS(=O)(=O)n1ccc(C(=O)N[C@@H](COCc2ccc(C(=O)N3CC(COc4ccc5c(c4)C(=O)N(C4CCC(=O)NC4=O)C5=O)C3)cc2)C(=O)Nc2nc(-c3ccccc3)cs2)c1 (stereo partly drawn)", "> 10 µM"),
    ("CS(=O)(=O)n1ccc(C(=O)NCC(=O)Nc2nc(-c3cccc(-c4cccc(CNC(=O)CCOCCOCCNc5ccc6c(c5)C(=O)N(C5CCC(=O)NC5=O)C6=O)c4)c3)cs2)c1 (stereo not drawn)", "> 10 µM"),
    ("CS(=O)(=O)n1ccc(C(=O)N[C@@H](COCc2ccc(CNC(=O)CCN3CCN(c4ccc5c(c4)C(=O)N(C4CCC(=O)NC4=O)C5=O)CC3)cc2)C(=O)Nc2nc(-c3ccccc3)cs2)c1 (stereo partly drawn)", "0.1 to 1 µM"),
    ("CN(CCNC(=O)CN(C)c1cc(-c2cccc(-c3csc(NC(=O)CNC(=O)c4ccn(S(C)(=O)=O)c4)n3)c2)ccn1)CCNc1cccc2c1C(=O)N(C1CCC(=O)NC1=O)C2=O (stereo not drawn)", "> 10 µM"),
    ("Cc1ncsc1-c1ccc(CNC(=O)[C@@H]2C[C@@H](O)CN2C(=O)[C@@H](NC(=O)COCCOCCOCCOCC(=O)NCc2cccc(-c3cccc(-c4csc(NC(=O)CNC(=O)c5ccn(S(C)(=O)=O)c5)n4)c3)c2)C(C)(C)C)cc1", "1 to 10 µM"),
]

Kindly give each listed record's DC50.
1. CS(=O)(=O)n1ccc(C(=O)N[C@@H](CCOCCCC(=O)NCCCCS(=O)(=O)CCCNc2cccc3c2C(=O)N(C2CCC(=O)NC2=O)C3=O)C(=O)Nc2nc(-c3ccccc3)cs2)c1 (stereo partly drawn)
2. CS(=O)(=O)n1ccc(C(=O)N[C@@H](COCc2ccc(C(=O)N3CCN(CCCC#Cc4ccc5c(c4)C(=O)N(C4CCC(=O)NC4=O)C5=O)CC3)cc2)C(=O)Nc2nc(-c3ccccc3)cs2)c1.O=CO (stereo partly drawn)
3. CS(=O)(=O)n1ccc(C(=O)NCC(=O)Nc2nc(-c3cccc(-c4ccnc(C5(C(=O)NC6CCN(CCCCOc7ccc8c(c7)C(=O)N(C7CCC(=O)NC7=O)C8=O)CC6)CC5)c4)c3)cs2)c1 (stereo not drawn)

Solution:
1. > 10 µM
2. > 10 µM
3. 0.1 to 1 µM

Kindly give each listed record's DC50.
1. CS(=O)(=O)n1ccc(C(=O)N[C@@H](COCCCC(=O)NCCCCCCNc2ccc3c(c2)C(=O)N(C2CCC(=O)NC2=O)C3=O)C(=O)Nc2nc(-c3ccccc3)cs2)c1 (stereo partly drawn)
2. CS(=O)(=O)n1ccc(C(=O)N[C@@H](COCc2ccc(C(=O)NCCOc3cccc(OCCNc4cccc5c4C(=O)N(C4CCC(=O)NC4=O)C5=O)c3)cc2)C(=O)Nc2nc(-c3ccccc3)cs2)c1 (stereo partly drawn)
3. CS(=O)(=O)n1ccc(C(=O)NCC(=O)Nc2nc(-c3cccc(-c4ccn(CC(=O)NCCCCCCCCNC(=O)COc5cccc6c5C(=O)N(C5CCC(=O)NC5=O)C6=O)n4)c3)cs2)c1 (stereo not drawn)
4. CS(=O)(=O)n1ccc(C(=O)N[C@@H](CCOCCCC(=O)NCCOCc2cccc(COCCOc3ccc4c(c3)C(=O)N(C3CCC(=O)NC3=O)C4=O)c2)C(=O)Nc2nc(-c3ccccc3)cs2)c1 (stereo partly drawn)
5. CS(=O)(=O)n1ccc(C(=O)NCC(=O)Nc2nc(C3CCCN(C(=O)CCCCCCCOc4cccc5c4C(=O)N(C4CCC(=O)NC4=O)C5=O)C3)cs2)c1 (stereo not drawn)
6. Cc1ncsc1-c1ccc(CNC(=O)[C@@H]2C[C@@H](O)CN2C(=O)[C@@H](NC(=O)CCC(=O)N2CCN(c3cc(-c4cccc(-c5csc(NC(=O)CNC(=O)c6ccn(S(C)(=O)=O)c6)n5)c4)ccn3)CC2)C(C)(C)C)cc1
7. CC(C)(C)n1ccc(C(=O)N[C@@H](COCc2ccc(C(=O)NC3CCN(CCOc4ccc5c(c4)C(=O)N(C4CCC(=O)NC4=O)C5=O)CC3)cc2)C(=O)Nc2nc(-c3ccccc3)cs2)c1 (stereo partly drawn)

Solution:
> 10 µM
> 10 µM
> 10 µM
> 10 µM
> 10 µM
> 10 µM
0.1 to 1 µM

Kindly give each listed record's DC50.
1. Cc1ncsc1-c1ccc(CNC(=O)[C@@H]2C[C@@H](O)CN2C(=O)[C@@H](NC(=O)COCC(=O)NCCOc2cc(-c3cccc(-c4csc(NC(=O)CNC(=O)c5ccn(S(C)(=O)=O)c5)n4)c3)ccn2)C(C)(C)C)cc1
2. Cc1ncsc1-c1ccc(CNC(=O)[C@@H]2C[C@@H](O)CN2C(=O)[C@@H](NC(=O)CCCCCCCCCC(=O)NCc2cccc(-c3cccc(-c4csc(NC(=O)CNC(=O)c5ccn(S(C)(=O)=O)c5)n4)c3)c2)C(C)(C)C)cc1
3. CS(=O)(=O)n1ccc(C(=O)NCC(=O)Nc2nc(-c3cccc(-c4ccnc(N5CCN(C(=O)C6CC6CNC(=O)COc6cccc7c6C(=O)N(C6CCC(=O)NC6=O)C7=O)CC5)c4)c3)cs2)c1 (stereo not drawn)

Solution:
1: > 10 µM; 2: < 0.1 µM; 3: > 10 µM

---

# systemUnderTest: HiBit-BRM fusion protein (Homo sapiens)
# Construct: expressed in transfected cells
# procedureSummary: HiBiT-BRM cell-based degradation assay (Nano-Glo HiBiT Lytic Detection, 24 h)
# studyConditions: HeLa cells expressing HiBiT-BRM, read-out: BRM HiBit Degradation IC50
Counter-ions that a name gives are not always drawn.
readoutLabel: DC50

# compound, systemUnderTest, assayValue
measured = [
    ("Cc1ncsc1-c1ccc(CNC(=O)[C@@H]2CC(O)CN2C(=O)[C@@H](NC(=O)COCCOCCOCCNC(=O)CN(C)c2cc(-c3cccc(-c4csc(NC(=O)CNC(=O)c5ccn(S(C)(=O)=O)c5)n4)c3)ccn2)C(C)(C)C)cc1 (stereo partly shown)", "HiBit-BRM fusion protein (Homo sapiens)", "> 10 µM"),
    ("CS(=O)(=O)n1ccc(C(=O)N[C@@H](COCCCC(=O)NCCOc2ccc3c(c2)C(=O)N(C2CCC(=O)NC2=O)C3=O)C(=O)Nc2nc(-c3ccccc3)cs2)c1 (stereo partly shown)", "HiBit-BRM fusion protein (Homo sapiens)", "> 10 µM"),
    ("CS(=O)(=O)n1ccc(C(=O)N[C@@H](COCCCC(=O)NCCCCNc2ccc3c(c2)C(=O)N(C2CCC(=O)NC2=O)C3=O)C(=O)Nc2nc(-c3ccccc3)cs2)c1 (stereo partly shown)", "HiBit-BRM fusion protein (Homo sapiens)", "> 10 µM"),
]

Kindly give each listed record's DC50.
1. CS(=O)(=O)n1ccc(C(=O)N[C@@H](COCc2ccc(C(=O)NCCOCCOCCOCCNC(=O)COc3ccc4c(c3)C(=O)N(C3CCC(=O)NC3=O)C4=O)cc2)C(=O)Nc2nc(-c3ccccc3)cs2)c1 (stereo partly shown)
2. CS(=O)(=O)n1ccc(C(=O)NCC(=O)Nc2nc(-c3cccc(-c4ccnc(OCCNC(=O)CCOCCOCCNc5ccc6c(c5)C(=O)N(C5CCC(=O)NC5=O)C6=O)c4)c3)cs2)c1 (stereo not shown)
3. CS(=O)(=O)n1ccc(C(=O)NCC(=O)Nc2nc(-c3cccc(-c4ccnc(N5CCN(C(=O)CCOCCOCCNc6ccc7c(c6)C(=O)N(C6CCC(=O)NC6=O)C7=O)CC5)c4)c3)cs2)c1 (stereo not shown)
4. CS(=O)(=O)n1ccc(C(=O)NCC(=O)Nc2nc(-c3cccc(-c4ccnc(N5CCN(c6ccc7c(c6)C(=O)N(C6CCC(=O)NC6=O)C7=O)CC5)c4)c3)cs2)c1 (stereo not shown) [Compound 165, trifluoroacetate]
5. Cc1ncsc1-c1ccc(CNC(=O)[C@@H]2C[C@@H](O)CN2C(=O)[C@@H](NC(=O)CCCCCCCCCNC(=O)C2(c3cc(-c4cccc(-c5csc(NC(=O)CNC(=O)c6ccn(S(C)(=O)=O)c6)n5)c4)ccn3)CC2)C(C)(C)C)cc1

Solution:
1. > 10 µM
2. > 10 µM
3. < 0.1 µM
4. > 10 µM
5. < 0.1 µM

---

Assign Dmax to each entry below.
# systemUnderTest: HiBit-BRG1 fusion protein (Homo sapiens, UniProt P51532)
# Construct: expressed in transfected cells
# Sequence (P51532 whole entry, the tested form may be a part): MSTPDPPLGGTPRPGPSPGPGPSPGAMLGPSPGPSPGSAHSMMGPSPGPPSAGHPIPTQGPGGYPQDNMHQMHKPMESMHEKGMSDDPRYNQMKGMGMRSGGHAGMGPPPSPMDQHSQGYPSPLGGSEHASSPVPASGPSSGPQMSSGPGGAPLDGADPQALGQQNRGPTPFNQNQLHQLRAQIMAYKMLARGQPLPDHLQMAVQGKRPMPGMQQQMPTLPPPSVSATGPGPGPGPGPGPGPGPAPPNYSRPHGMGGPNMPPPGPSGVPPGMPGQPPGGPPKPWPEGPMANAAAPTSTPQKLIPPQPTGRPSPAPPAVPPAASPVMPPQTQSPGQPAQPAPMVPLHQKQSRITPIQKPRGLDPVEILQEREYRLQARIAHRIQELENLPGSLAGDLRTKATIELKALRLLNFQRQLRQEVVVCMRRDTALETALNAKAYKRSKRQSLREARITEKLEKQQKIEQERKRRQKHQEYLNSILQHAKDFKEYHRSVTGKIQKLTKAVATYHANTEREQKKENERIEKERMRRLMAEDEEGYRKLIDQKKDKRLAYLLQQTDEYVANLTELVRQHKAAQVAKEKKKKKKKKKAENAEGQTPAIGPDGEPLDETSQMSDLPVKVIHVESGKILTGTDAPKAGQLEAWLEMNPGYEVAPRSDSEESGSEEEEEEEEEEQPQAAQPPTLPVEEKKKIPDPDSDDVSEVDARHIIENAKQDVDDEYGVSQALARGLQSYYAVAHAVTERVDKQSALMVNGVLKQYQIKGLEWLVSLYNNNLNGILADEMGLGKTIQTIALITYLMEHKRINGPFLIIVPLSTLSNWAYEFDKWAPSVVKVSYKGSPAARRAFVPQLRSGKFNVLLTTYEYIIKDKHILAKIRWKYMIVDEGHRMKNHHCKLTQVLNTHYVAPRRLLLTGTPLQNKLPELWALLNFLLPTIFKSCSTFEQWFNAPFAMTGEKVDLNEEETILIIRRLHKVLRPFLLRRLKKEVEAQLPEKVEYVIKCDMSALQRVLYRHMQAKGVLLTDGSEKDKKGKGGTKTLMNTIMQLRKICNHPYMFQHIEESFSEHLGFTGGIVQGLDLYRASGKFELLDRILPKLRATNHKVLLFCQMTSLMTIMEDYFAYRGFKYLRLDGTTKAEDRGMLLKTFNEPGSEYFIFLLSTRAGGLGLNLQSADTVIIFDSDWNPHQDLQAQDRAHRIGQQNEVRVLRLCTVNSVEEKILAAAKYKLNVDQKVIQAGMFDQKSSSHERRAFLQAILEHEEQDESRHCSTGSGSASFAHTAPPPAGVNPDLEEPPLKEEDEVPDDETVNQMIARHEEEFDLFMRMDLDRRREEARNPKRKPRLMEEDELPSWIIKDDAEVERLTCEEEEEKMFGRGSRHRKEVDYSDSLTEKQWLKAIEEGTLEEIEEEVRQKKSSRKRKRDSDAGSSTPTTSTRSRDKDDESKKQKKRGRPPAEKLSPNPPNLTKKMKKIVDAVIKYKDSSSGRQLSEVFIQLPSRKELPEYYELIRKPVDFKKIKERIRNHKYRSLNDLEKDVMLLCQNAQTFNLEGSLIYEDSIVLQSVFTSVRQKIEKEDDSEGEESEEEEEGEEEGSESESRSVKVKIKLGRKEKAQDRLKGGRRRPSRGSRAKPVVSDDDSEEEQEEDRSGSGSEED
# procedureSummary: HiBiT-BRG1 cell-based degradation assay (Nano-Glo HiBiT Lytic Detection, 24 h)
# studyConditions: HeLa, HeLa cells expressing HiBit-BRG1 and LgBit, top dose 30 μM, read-out: BRG1 HiBit Degradation Maximum measured

Below: 3 molecules and their reported Dmax.
# molecule, systemUnderTest, Dmax
rows = [
    ("CN(CC(=O)NCCOCCOCCNc1ccc2c(c1)C(=O)N(C1CCC(=O)NC1=O)C2=O)c1cc(-c2cccc(-c3csc(NC(=O)CNC(=O)c4ccn(S(C)(=O)=O)c4)n3)c2)ccn1 (stereo not drawn) [Compound 93]", "HiBit-BRG1 fusion protein (Homo sapiens, UniProt P51532)", "< 50%"),
    ("Cc1ncsc1-c1ccc(CNC(=O)[C@@H]2C[C@@H](O)CN2C(=O)[C@@H](NC(=O)CCCCCNC(=O)c2ccc(COC[C@H](NC(=O)c3ccn(S(C)(=O)=O)c3)C(=O)Nc3nc(-c4ccccc4)cs3)cc2)C(C)(C)C)cc1 [Compound 232]", "HiBit-BRG1 fusion protein (Homo sapiens, UniProt P51532)", "< 50%"),
    ("Cc1ncsc1-c1ccc(CNC(=O)[C@@H]2C[C@@H](O)CN2C(=O)[C@@H](NC(=O)N2CC(C(=O)NCc3cccc(-c4cccc(-c5csc(NC(=O)CNC(=O)c6ccn(S(C)(=O)=O)c6)n5)c4)c3)C2)C(C)(C)C)cc1 [Compound 160]", "HiBit-BRG1 fusion protein (Homo sapiens, UniProt P51532)", "< 50%"),
]

Kindly give each listed record's Dmax.
1. CS(=O)(=O)n1ccc(C(=O)N[C@@H](COCc2ccc(CNC(=O)CCOCCOCCNc3cccc4c3C(=O)N(C3CCC(=O)NC3=O)C4=O)cc2)C(=O)Nc2nc(-c3ccccc3)cs2)c1 (stereo partly drawn) [Compound 181]
2. CS(=O)(=O)n1ccc(C(=O)N[C@@H](CCOCCCC(=O)NCCCCCCCCNc2cccc3c2C(=O)N(C2CCC(=O)NC2=O)C3=O)C(=O)Nc2nc(-c3ccccc3)cs2)c1 (stereo partly drawn) [Compound 281]
3. Cc1ncsc1-c1ccc(CNC(=O)[C@@H]2C[C@@H](O)CN2C(=O)[C@@H](NC(=O)CCCCCCCCC(=O)NCc2ccc(COC[C@H](NC(=O)c3ccn(S(C)(=O)=O)c3)C(=O)Nc3nc(-c4ccccc4)cs3)cc2)C(C)(C)C)cc1 [Compound 177]
4. CN(CC(=O)NCCCCS(=O)(=O)CCCNc1cccc2c1C(=O)N(C1CCC(=O)NC1=O)C2=O)c1cc(-c2cccc(-c3csc(NC(=O)CNC(=O)c4ccn(S(C)(=O)=O)c4)n3)c2)ccn1 (stereo not drawn) [Compound 29]
5. CS(=O)(=O)n1ccc(C(=O)N[C@@H](CCOCCCC(=O)N2CCC(CCCCN3CCN(c4ccc5c(c4)C(=O)N(C4CCC(=O)NC4=O)C5=O)CC3)CC2)C(=O)Nc2nc(-c3ccccc3)cs2)c1 (stereo partly drawn) [Compound 257]
6. Cc1ncsc1-c1ccc(CNC(=O)[C@@H]2C[C@@H](O)CN2C(=O)[C@@H](NC(=O)CCCCCCCNC(=O)CCCOCC[C@H](NC(=O)c2ccn(S(C)(=O)=O)c2)C(=O)Nc2nc(-c3ccccc3)cs2)C(C)(C)C)cc1 [Compound 218]

Solution:
1. 50 to 75%
2. < 50%
3. 50 to 75%
4. < 50%
5. < 50%
6. < 50%
